Provenance of the data: patent US20250127759A1

- test name: Phase 1/2a study, plasma pharmacokinetics of PF-07104091
- Assay type: in vivo, human
- condition details: human, plasma, po, 300 mg, Cycle 1 Day 1, single oral dose; 300 mg BID monotherapy; geometric mean (CV %)
metric name: AUC(0-t)
Kindly report the value followed by its unit.

// AUC(0-t) lookup, key: `COCc1cc(C(=O)Nc2cc([C@H]3CC[C@@H](OC(=O)NC(C)C)C3)[nH]n2)n(C)n1` 9110 ng·h/mL

---

- test name: Phase 1/2a study, plasma pharmacokinetics of PF-07104091
- Assay type: in vivo, human
- condition details: human, plasma, po, 300 mg, Cycle 1 Day 1, single oral dose; 300 mg BID monotherapy; median (range); read-out: Tmax
metric name: Tmax (h)
# output: bare number, implied unit h

What does the record list as Tmax for `COCc1cc(C(=O)Nc2cc([C@H]3CC[C@@H](OC(=O)NC(C)C)C3)[nH]n2)n(C)n1` ? 2

---

- test name: Phase 1/2a study, plasma pharmacokinetics of PF-07104091
- Format: in vivo, human
- condition details: human, plasma, po, 150 mg, Cycle 1 Day 1, single oral dose; 150 mg BID monotherapy; geometric mean (CV %)
metric name: AUC(0-t) (ng·h/mL)
Your answer is read as ng·h/mL, so omit the unit and give the number.

Sample `COCc1cc(C(=O)Nc2cc([C@H]3CC[C@@H](OC(=O)NC(C)C)C3)[nH]n2)n(C)n1` — what was its AUC(0-t)? 4480

---

- test name: In vivo efficacy, MCF7 breast cancer model
- condition details: female, mouse, NSG mice, po, BID, read-out: maximum tolerated dose level
metric name: MTD at 21 days (mg/kg)
# number only, unit mg/kg dropped from output

Consider the compound shown here: `COCc1cc(C(=O)Nc2cc([C@H]3CC[C@@H](OC(=O)NC(C)C)C3)[nH]n2)n(C)n1` What is its recorded MTD at 21 days? 150

---

- test name: Phase 1/2a study, plasma pharmacokinetics of PF-07104091
- Assay type: in vivo, human
- condition details: human, plasma, po, 75 mg, Cycle 1 Day 15, repeated BID oral; 75 mg BID monotherapy; individual values; read-out: Tmax
metric name: Tmax (h)
Quick reminder: number only, in h, skip the unit.

Name the reported Tmax value associated with the compound `COCc1cc(C(=O)Nc2cc([C@H]3CC[C@@H](OC(=O)NC(C)C)C3)[nH]n2)n(C)n1` 1.1

---

- System: MCF7-PalboR (resistant to palbociclib)
- test name: Proliferation inhibition, MCF7-PalboR
- Format: cell-based
- condition details: 168 h, read-out: Proliferation Inhibition IC50
metric name: IC50 (µM)
Output spec: scalar in µM, unitless text.

Fill in the blank: the reported IC50 of COCc1cc(C(=O)Nc2cc([C@H]3CC[C@@H](OC(=O)NC(C)C)C3)[nH]n2)n(C)n1 [PF-07104091] is ____. 0.68

---

- test name: Phase 1/2a study, plasma pharmacokinetics of PF-07104091
- Format: in vivo, human
- condition details: human, plasma, po, 225 mg, Cycle 1 Day 1, single oral dose; 225 mg BID monotherapy; arithmetic mean ± SD; read-out: t1/2 (converted)
metric name: half-life (h)
Numbers only; they are read as h.

What does the data say about its half-life? Entry: `COCc1cc(C(=O)Nc2cc([C@H]3CC[C@@H](OC(=O)NC(C)C)C3)[nH]n2)n(C)n1` 2.2
